pEC50 values for the binders below.
# systemTested: T1, recombinant human sPLA2-GIB (mature secreted form of group IB pancreatic phospholipase A2) (human, UniProt P04054 23-148)
# T1 construct: Genbank NP_000919 printed for human PLA2-GIB; also called sPLA2-IB; mature sPLA2-GIB
# T1 sequence (P04054 23-148): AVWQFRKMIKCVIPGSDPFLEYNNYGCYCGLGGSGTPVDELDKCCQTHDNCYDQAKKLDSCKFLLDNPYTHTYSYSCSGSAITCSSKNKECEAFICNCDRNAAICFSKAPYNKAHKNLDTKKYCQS
# protocolDetails: indirect ELISA, coated antigen
A value of pEC50 is the negative decimal logarithm of a concentration given in moles per litre.

Example cases with answers are listed next.
| binder | measuredMetric | observedMeasurement |
| --- | --- | --- |
| #24B2 (antibody, IgG2a, V domains shown) VH: DVQVQESGPGLVKPSQTVSLNCTVTGHSITDDNYYWSWIRLVSGSKLEWIGYITSSGSTDINPSLKSRISITRDISKNQFFLHLNSVTAEDTATYYCARDSTDGDFYFEKWGQGTTLTVSS VL: DIVLTQSPASLAVSLGQRATISCRASESVDNYGISFMHWYQQKPGQPPKLLIYRASNLESGIPARFSGSGSRTDFTLTINPVETDDVATYYCQQSSRDLFTFGGGTKLEIKR | pEC50 | 7.82 |
| #22C6 (antibody, IgG2a, V domains shown) VH: EVQLQESGPGLVKPSQTVSLNCTVTGHSITDDNYYWSWIRLVSGSKLEWIGYITSAGNTDNNPSLKSRISITRDISKNQFFLHLSSVTAEDTATYYCARDSTDGDFYFEKWGQGTTLTVSS VL: EIVLTQSPTTMAASPGEKITITCSVSSSISPNFLHWYQQKPGFSPKLLIFRTSNLASGVPTRFSGSGSGTSYSLTIGTMEAEDVATYYCHQGNSLPLTFGAGTKLELKR | pEC50 | 7.66 |

Ask | Data request, read-out pEC50, for #14G9 (antibody, IgG1, V domains shown, also called monoclonal antibody 14G9; #14G9 mAb) VH: QVQLQQPGAELVKPGASVKLSCKASGYTFTNYWIHWVKRRPGQGLEWIGNIDPSDTRTHYNQKFKDKATLAVDKSSSTAYMQLSSLTSEDSAVFYCARQTLYYEALDYWGQGTTLTVSS VL: DIVMTQSHKLMSTSVGDRVSITCKASQDVSTAVAWYQEKPGQSPKLLIYWASTRHTGVPNRFTGSRSGTDYTLTISSVQAEDLALYYCQQDYSTPPTFGAGTKLELKR
Reply | 8.22

Ask | Data request, read-out pEC50, for #7A10 (antibody, IgG1, V domains shown, also called monoclonal antibody 7A10; #7A10 mAb) VH: QVQLKESGPGLVAPSQSLSITCTVSGFSLTSYGVSWVRQPPGKGLEWLGVIWGDGSTNYHSALISRLSISKDNSKSQVFLKLNSLQTDDTATYYCAKEGGLRRGVYFDYWGQGTTLTVSS VL: DIQMNQSPSSLSASLGDTITITCRASQGISIWLDWYQQKPGNIPKLLIYKASNLHTGVPPRFSGSGSGTDFTLTISSLQPEDIATYYCLQSQSYPLTFGAGTKLELKR
Reply | 7.11
